Test system: TK-10 renal
Experiment: NCI tumour cell line growth inhibition, 48 h
readout label: TGI

# example entries with known answers
{"compound": "COc1cccc2c1c(C(=O)C(=O)Nc1cc(C)no1)cn2Cc1ccc(F)cc1", "TGI": "> 100 µM"}
{"compound": "Cn1cc(-c2ccc3occ(-c4cccc(-c5ccncc5)c4)c3n2)cn1", "TGI": "> 100 µM"}
{"compound": "COc1ccc(/C(=C2/O[C@@H]([C@H]3COC(C)(C)O3)[C@H]3OC(C)(C)O[C@@H]23)c2cc(OC)c(OC)c(OC)c2)cc1O", "TGI": "86.3 µM"}

Query block: Return TGI (reported value) for this compound: CC(=O)OCC1OC(SC2=N/C(=C\c3cc4c(=O)c5ccccc5sc4s3)C(=O)N2c2ccccc2)C(OC(C)=O)C(OC(C)=O)C1OC(C)=O (centres undefined)
Result block: > 100 µM

###

So I've got a bunch of compounds here, and I need their TGI values.
Tested on: SK-OV-3 ovarian
Assay: NCI tumour cell line growth inhibition, 48 h

# example entries with known answers
{"compound": "CC1(C)CC(=O)c2c(C(F)(F)F)nn(-c3ccc(C(N)=O)c(NC4CCC(OC(=O)CN)CC4)c3)c2C1 (stereo not given)", "TGI": "> 100 µM"}
{"compound": "Cn1c(=S)[nH]c2sc3c(c2c1=O)CCSC3", "TGI": "> 100 µM"}

Report TGI for every entry below.
1. [N-]=[N+]=Nc1c(C=O)c(=O)n2c3c(cccc13)CCC2
2. O=C(/C=C/c1csc(-c2ccccc2)n1)NCc1ccc(C(=O)NCCc2ccccc2)cc1
3. O=C(CN1CCOCC1)Nc1nc(-c2ccc(Cl)cc2)cs1
4. C[C@H](OCc1ccccc1)C(=O)N1CCS(=O)(=O)N2CCC[C@H]2C1=O
5. CC1=C(C(=O)O)N2C(=O)[C@@H](NC(=O)C(c3ccc(O)cc3)N3CSC(=S)N(C(C)C)C3)C2SC1 (stereo not given in full)

Result block:
["33.9 µM", "56.2 µM", "> 100 µM", "> 100 µM", "> 100 µM"]

Report TGI for every entry below.
1. CCCCCCCCCCC(C(=O)O)C1(C(=O)O)CCC(=O)O1 (stereo not given)
2. COc1ccc(OC)c(/C=C2\SC(=S)NC2=O)c1
3. CCN(CC)CC(C)Nc1ccc([N+](=O)[O-])c2sc3ccccc3c(=O)c12 (stereo not given)

Result block:
["> 100 µM", "> 100 µM", "13.2 µM"]

###

System: HOP-62 NSCLC
Assay: NCI tumour cell line growth inhibition, 48 h; in the data active = GI50 below about 0.43 µM; inactive = the rest
Write down one outcome, taken from YES for active, NO for inactive

Field: example entries. Status: answers known.
{"compound": "CN(C)CCNc1c2c(c(NCCN(C)C)c3[nH]ccc13)C(=O)c1ccccc1C2=O", "tested target": "HOP-62 NSCLC", "group label": "NO"}
{"compound": "CCN(CC)CC(C)Nc1ccc([N+](=O)[O-])c2sc3ccccc3c(=O)c12 (stereo unspecified)", "tested target": "HOP-62 NSCLC", "group label": "NO"}

Query block: Please state the recorded outcome for this compound: COc1cc(/C=C/c2cc(O)c3cc(C(C)=O)c(=O)oc3c2)cc2c1O[C@]1(C)CC[C@@H](O)C(C)(C)[C@H]1C2
Result block: NO

Query block: Please state the recorded outcome for this compound: CCCC(C)c1cc(Cc2cc(Cl)cc(Cl)c2O)c(O)c(Cc2cc(Cl)cc(Cl)c2O)c1 (stereo unspecified)
Result block: NO

Query block: Please state the recorded outcome for this compound: COc1ccc2nc(-c3ccc(-c4noc(-c5cc(OC)c(OC)c(OC)c5)n4)cc3)[nH]c2c1
Result block: NO

Query block: Please state the recorded outcome for this compound: CCCCCCCCCCCCCCCCN1CC2CCCCC2C1 (stereo unspecified)
Result block: NO

Query block: Please state the recorded outcome for this compound: O=C(NCCO)Nc1ccc(-c2nc(N3CCOCC3)c3cccn3n2)cc1
Result block: YES
